- Experimental Target: Avi-KRAS WT (2-169) GTP/RAF1 RBD-3xFLAG (51-131) (Homo sapiens)
- Construct: Avi-KRAS WT (2-169)
- Sequence (P01116 2-169 isoform P01116-2): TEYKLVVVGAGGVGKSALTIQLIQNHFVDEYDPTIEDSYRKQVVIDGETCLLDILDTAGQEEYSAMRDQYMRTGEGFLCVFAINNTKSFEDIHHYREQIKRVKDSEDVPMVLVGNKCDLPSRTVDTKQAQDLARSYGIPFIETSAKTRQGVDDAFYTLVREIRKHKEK
- Assay Info: Raf1-KRAS WT-GTP disruption HTRF assay (Biological Example 3)
- Assay type: binding
- Assay Conditions: KRAS WT, GTP-loaded
pIC50: −log10 of the molar value.
Measured Parameter: pIC50

molecule="N#Cc1c(N)sc2c(F)ccc(-c3c(C(F)(F)F)cc4c(N5CCCC(c6cccnc6)C5)nc(OC[C@@]56CCCN5C[C@H](F)C6)nc4c3F)c12 (some centres unmarked) [Compound 944]" measured_parameter=pIC50 observed_result="< 5.00"
molecule="N#Cc1c(N)sc2c(F)ccc(-c3c(C(F)(F)F)cc4c(N5CCC(c6cccnc6)C5)nc(OC[C@@]56CCCN5C[C@H](F)C6)nc4c3F)c12 (some centres unmarked) [Compound 943]" measured_parameter=pIC50 observed_result="< 5.00"
molecule="CCN(c1nc(OC[C@@]23CCCN2C[C@H](F)C3)nc2c(F)c(-c3ccc(F)c4sc(N)c(C#N)c34)c(C(F)(F)F)cc12)[C@H]1C[C@H](C(=O)N(C)C)C1 (atropisomer, axis not shown) [Compound 950]" measured_parameter=pIC50 observed_result="6.00 to 7.00"
molecule="CCN(c1nc(OC[C@@]23CCCN2C[C@H](F)C3)nc2c(F)c(-c3ccc(F)c4sc(N)c(C#N)c34)c(C(F)(F)F)cc12)[C@H]1CCN(C(=O)OCC(F)(F)F)C1 (atropisomer, axis not shown) [Compound 849]" measured_parameter=pIC50 observed_result="6.00 to 7.00"
molecule="CCN(c1nc(OC[C@@]23CCCN2C[C@H](F)C3)nc2c(F)c(-c3ccc(F)c4sc(N)c(C#N)c34)c(C(F)(F)F)cc12)[C@H]1CCN(C(=O)c2coc(C)n2)C1 (atropisomer, axis not shown) [Compound 832]" measured_parameter=pIC50 observed_result="6.00 to 7.00"

---

- Experimental Target: Avi-KRAS G12V (1-169) GppNHp/RAF1 RBD-3xFLAG (52-151) (Homo sapiens, UniProt P01116, G12V)
- Construct: Avi-KRAS G12V (1-169)
- Sequence (P01116 1-169 isoform P01116-2 G12V): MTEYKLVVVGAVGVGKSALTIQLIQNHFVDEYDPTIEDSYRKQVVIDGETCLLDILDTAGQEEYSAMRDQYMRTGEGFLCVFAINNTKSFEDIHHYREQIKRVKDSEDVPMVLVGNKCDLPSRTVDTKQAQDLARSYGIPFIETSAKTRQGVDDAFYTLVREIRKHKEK
- Assay Info: Raf1-KRAS G12V-GppNHP disruption HTRF assay (Biological Example 1)
- Format: binding
- Assay Conditions: KRAS G12V, GppNHp-loaded; Table 11
Measured Parameter: IC50

compound="CN(c1nc(OC[C@@]23CCCN2C[C@H](F)C3)nc2c(F)c(-c3ccc(F)c4sc(N)c(C#N)c34)c(C(F)(F)F)cc12)[C@@H]1C[C@H](O)[C@@H]1CO [Compound 37]" observed_result="100 to 1000 nM"
compound="C[C@@H]1CN(c2nc(OC[C@@]34CCCN3C[C@H](F)C4)nc3c(F)c(-c4ccc(F)c5sc(N)c(C#N)c45)c(C(F)(F)F)cc23)[C@@H](C)CO1 [Compound 140]" observed_result="1000 to 10000 nM"
compound="CC(=O)N1CCC(N(C)c2nc(OC[C@@]34CCCN3C[C@H](F)C4)nc3c(F)c(-c4ccc(F)c5sc(N)c(C#N)c45)c(C(F)(F)F)cc23)[C@H]1C (some centres unmarked) [Compound 114]" observed_result="100 to 1000 nM"
compound="C[C@@H]1[C@H](N(C)c2nc(OC[C@@]34CCCN3C[C@H](F)C4)nc3c(F)c(-c4ccc(F)c5sc(N)c(C#N)c45)c(C(F)(F)F)cc23)CCN1C(=O)C1CC1 [Compound 258]" observed_result="100 to 1000 nM"
compound="CCN(c1nc(OC[C@@]23CCCN2C[C@H](F)C3)nc2c(F)c(-c3ccc(F)c4sc(N)c(C#N)c34)c(C(F)(F)F)cc12)[C@@H]1CCN(C(C)=O)[C@@H]1C [Compound 189]" observed_result="100 to 1000 nM"
